Please respond with reported IC50 for every item in the list.
# TESTED SYSTEM: CRAF (Homo sapiens)
# RUN DESCRIPTION: CRAF kinase activity assay (ADP-Glo)
# Format: biochemical
# MEASUREMENT CONTEXT: Table 5; read-out: Kinase IC50 (nM) CRAF

Examples with answers:
O=S(=O)(Nc1cc(F)c(F)c(Nc2ncnc3ccc(-n4cnc5ccccc54)nc23)c1F)c1cccc(Cl)c1Cl	< 10 nM
O=S(=O)(Nc1cc(F)c(F)c(Nc2ncnc3ccc(-n4nnc5ccccc54)nc23)c1F)c1cccc(Cl)c1Cl	< 10 nM
O=S(=O)(Nc1cccc(Nc2ncnc3ccc(-n4cnc5ccccc54)nc23)c1F)c1cccc(Cl)c1Cl	10 to 50 nM
Cc1c(Cl)cccc1S(=O)(=O)Nc1cccc(Nc2ncnc3ccc(-n4cnc5ccccc54)nc23)c1F	10 to 50 nM

Find the recorded IC50 belonging to COc1ccc(S(=O)(=O)Nc2ccc(F)c(Nc3ncnc4ccc(-n5cnc6ccccc65)nc34)c2Cl)cc1 and report it.
> 50 nM

* * *

# Tested on: NCIH2087 cells (BRAF L597V; KRAS Q61K)
# RUN DESCRIPTION: Proliferation inhibition (CellTiter-Glo), NCIH2087
# Format: cell-based, human
# MEASUREMENT CONTEXT: Homo sapiens, NCI-H2087, 72 h; NCIH2087, 3 days; read-out: NCIH2087 Prolif. EC50
# Experimental: All cancer cell lines (A375, A101D, A2058, RKO, HT29 SK-MEL 30, IPC298, HepG2, HCT-116, Lovo, SWV620, SW480, NCI-H358, NCI-H2122, Calu-6, NCIH2087, NCIH1755, NCIH1666 and Mewo) were obtained from ATCC and cultured in RPMI-1640 medium (Gibco) supplemented with 5% heat inactivated fetal bovine serum (FBS, Wisent) at 37° C. under 5% CO2. […] The effect of each compound dilution on the proliferation of cancer cell lines was expressed in % inhibition and calculated as follows. […]
pEC50: −log10 of the molar value.
MEASUREMENT TYPE: pEC50

Enter reported pEC50 observed with NCIH2087 cells (BRAF L597V; KRAS Q61K) for Cc1ccc2c(Nc3cccc(Cl)c3F)nccc2c1NC(=O)c1csc2c(N)ncnc12 [Belvarafenib, reference compound]
> 7.52

* * *

Please respond with reported pIC50 for every item in the list.
# System: pERK in HCT-116 cells (KRAS G13D)
# RUN DESCRIPTION: Phospho-ERK inhibition (AlphaLISA SureFire Ultra p-ERK 1/2), HCT116
# Type: cell-based, human
# MEASUREMENT CONTEXT: HCT116 cells; class symbol
pIC50: −log10 of the molar value.

CC(C)N1CCC(S(=O)(=O)c2cn(-c3ccc4ncnc(Nc5c(F)ccc(NS(=O)(=O)c6cccc(Cl)c6Cl)c5F)c4n3)c3ccccc23)CC1	> 6.30
O=S(=O)(Nc1ccc(F)c(Nc2ncnc3ccc(-n4cnc5c4CCCC5)nc23)c1F)c1cccc(Cl)c1Cl	6.00 to 6.30

In the following, a different compound is considered.
Find the recorded pIC50 belonging to CC1(O)CCN(S(=O)(=O)c2cn(-c3ccc4ncnc(Nc5c(F)ccc(NS(=O)(=O)c6cccc(Cl)c6Cl)c5F)c4n3)c3ccccc23)CC1 and report it.
> 6.30

* * *

# TESTED SYSTEM: BRAF (Homo sapiens (Human))
# Sequence (P15056 whole entry): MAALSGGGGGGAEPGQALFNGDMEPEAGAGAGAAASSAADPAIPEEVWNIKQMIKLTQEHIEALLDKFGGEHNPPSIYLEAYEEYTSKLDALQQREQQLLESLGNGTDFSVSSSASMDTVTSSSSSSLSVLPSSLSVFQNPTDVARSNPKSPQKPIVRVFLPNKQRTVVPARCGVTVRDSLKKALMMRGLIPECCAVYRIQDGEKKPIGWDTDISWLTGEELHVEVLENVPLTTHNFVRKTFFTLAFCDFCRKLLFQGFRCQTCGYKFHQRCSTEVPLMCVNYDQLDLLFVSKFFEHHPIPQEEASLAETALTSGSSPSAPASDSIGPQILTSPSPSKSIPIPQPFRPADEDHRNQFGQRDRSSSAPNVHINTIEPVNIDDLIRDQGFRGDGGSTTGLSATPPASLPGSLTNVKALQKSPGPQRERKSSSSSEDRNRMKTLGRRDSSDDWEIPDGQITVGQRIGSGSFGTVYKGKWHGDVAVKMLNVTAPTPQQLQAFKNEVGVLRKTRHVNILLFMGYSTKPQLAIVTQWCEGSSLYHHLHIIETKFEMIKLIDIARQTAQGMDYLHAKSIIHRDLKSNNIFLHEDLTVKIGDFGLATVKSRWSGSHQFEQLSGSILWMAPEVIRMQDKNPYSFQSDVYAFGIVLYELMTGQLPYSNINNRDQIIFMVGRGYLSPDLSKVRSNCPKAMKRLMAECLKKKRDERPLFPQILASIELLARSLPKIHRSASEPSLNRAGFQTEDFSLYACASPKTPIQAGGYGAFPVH
# RUN DESCRIPTION: BRAF kinase activity assay (ADP-Glo)
# Type: biochemical
# MEASUREMENT CONTEXT: BRAF; read-out: Kinase IC50 (nM), BRAF biochemical kinase assay
Please respond with reported IC50 for every item in the list.

Examples with answers:
Cc1c(F)cccc1S(=O)(=O)Nc1ccc(F)c(Nc2ncnc3ccc(-n4ncc5c4CN(C)CC5)nc23)c1F	1 to 10 nM
Cc1ncc(-c2ccc3ncnc(Nc4c(F)ccc(NS(=O)(=O)c5cccc(Cl)c5Cl)c4F)c3n2)[nH]1	1 to 10 nM
O=S(=O)(Nc1ccc(F)c(Nc2ncnc3ccc(-n4cnc5c(C6(CO)CC6)cccc54)nc23)c1F)c1cccc(Cl)c1Cl	1 to 10 nM
O=S(=O)(Nc1ccc(F)c(Nc2ncnc3ccc(-n4cnc5c(N6C7CCC6CN(CCO)C7)cccc54)nc23)c1F)c1cccc(Cl)c1Cl	1 to 10 nM
O=S(=O)(Nc1ccc(F)c(Nc2ncnc3ccc(-n4cnc5nccnc54)nc23)c1F)c1cccc(Cl)c1Cl	> 10 nM

In the following, a different molecule is considered.
Find the recorded IC50 belonging to O=S(=O)(Nc1ccc(F)c(Nc2ncnc3ccc(-c4cnc5n4CCCC5)nc23)c1F)c1cccc(Cl)c1Cl and report it.
1 to 10 nM

* * *

# Tested on: pERK in HCT-116 cells (KRAS G13D)
# RUN DESCRIPTION: Phospho-ERK inhibition (AlphaLISA SureFire Ultra p-ERK 1/2), HCT116
# Format: cell-based, human
# MEASUREMENT CONTEXT: HCT116 cells; Ymin in brackets
Please respond with reported HCT116 pERK Ymin % for every item in the list.
Answers are plain numbers, in %.

Examples with answers:
COc1ccc(S(=O)(=O)Nc2ccc(F)c(Nc3ncnc4ccc(-n5cnc6c(NC(C)=O)cccc65)nc34)c2F)c(C)c1	1.5
CN(C)Cc1cccc2c1ncn2-c1ccc2ncnc(Nc3c(F)ccc(NS(=O)(=O)c4ccccc4Cl)c3F)c2n1	−8.8
O=S(=O)(Nc1ccc(F)c(Nc2ncnc3ccc(-n4cnc5c(-c6cccnc6)cccc54)nc23)c1F)c1ccccc1Cl	−3.9
Nc1cccc2c1ncn2-c1ccc2ncnc(Nc3c(F)ccc(NS(=O)(=O)c4ccccc4Cl)c3F)c2n1	−7.3
NC(=O)Cc1cn(-c2ccc3ncnc(Nc4c(F)ccc(NS(=O)(=O)c5ccccc5Cl)c4F)c3n2)c2ccccc12	−1

Quick one: give me HCT116 pERK Ymin % for each item below, same order please.
1. Cc1c(Cl)cccc1S(=O)(=O)Nc1ccc(F)c(Nc2ncnc3ccc(-n4nnc5c(O)cccc54)nc23)c1F
2. N#Cc1cccc(-c2ccc3ncnc(Nc4c(F)ccc(NS(=O)(=O)c5ccccc5Cl)c4F)c3n2)c1
3. CN(C)C(=O)c1cn(-c2ccc3ncnc(Nc4c(F)ccc(NS(=O)(=O)c5ccccc5Cl)c4F)c3n2)c2cccc(N)c12
4. O=C(c1cn(-c2ccc3ncnc(Nc4c(F)ccc(NS(=O)(=O)c5ccccc5Cl)c4F)c3n2)c2ccccc12)N1CCOCC1
5. CNC(=O)c1cn(-c2ccc3ncnc(Nc4c(F)ccc(NS(=O)(=O)c5ccccc5Cl)c4F)c3n2)c2ccccc12
6. COc1ccc(S(=O)(=O)Nc2ccc(F)c(Nc3ncnc4ccc(-c5cn[nH]c5)nc34)c2F)c(C)c1

["−12", "−8", 12, "−1.7", "−10", 4]

Quick one: give me HCT116 pERK Ymin % for each item below, same order please.
1. CCN(C)Cc1cccc2c1ncn2-c1ccc2ncnc(Nc3c(F)ccc(NS(=O)(=O)c4ccccc4Cl)c3F)c2n1
2. O=S(=O)(Nc1ccc(F)c(Nc2ncnc3ccc(-n4cnc5c(CN6CCC(O)CC6)cccc54)nc23)c1F)c1ccccc1Cl
3. Cc1c([N+](=O)[O-])ncn1-c1ccc2ncnc(Nc3c(F)ccc(NS(=O)(=O)c4ccccc4Cl)c3F)c2n1

1. −5
2. −7
3. −5

* * *

Please respond with reported IC50 for every item in the list.
# Tested on: pERK in HCT-116 cells (KRAS G13D)
# RUN DESCRIPTION: Phospho-ERK inhibition (AlphaLISA SureFire Ultra p-ERK 1/2), HCT116
# Format: cell-based, human
# MEASUREMENT CONTEXT: HCT116 cells; class symbol

Quick one: give me IC50 for each item below, same order please.
1. CC(C)(C#N)c1cccc2c1ncn2-c1ccc2ncnc(Nc3c(F)ccc(NS(=O)(=O)c4cccc(Cl)c4Cl)c3F)c2n1
2. O=S(=O)(Nc1ccc(F)c(Nc2ncnc3ccc(-n4cc(S(=O)(=O)N5CCN(c6ccccn6)CC5)c5ccccc54)nc23)c1F)c1cccc(Cl)c1Cl
3. O=C(c1cn(-c2ccc3ncnc(Nc4c(F)ccc(NS(=O)(=O)c5cccc(Cl)c5Cl)c4F)c3n2)c2ccccc12)C1CCOC1 (stereo not shown)

< 500 nM
500 to 1000 nM
1000 to 10000 nM

* * *

Please respond with reported IC50 for every item in the list.
# TESTED SYSTEM: CRAF (Homo sapiens, UniProt P04049)
# Sequence (P04049 whole entry, looked up): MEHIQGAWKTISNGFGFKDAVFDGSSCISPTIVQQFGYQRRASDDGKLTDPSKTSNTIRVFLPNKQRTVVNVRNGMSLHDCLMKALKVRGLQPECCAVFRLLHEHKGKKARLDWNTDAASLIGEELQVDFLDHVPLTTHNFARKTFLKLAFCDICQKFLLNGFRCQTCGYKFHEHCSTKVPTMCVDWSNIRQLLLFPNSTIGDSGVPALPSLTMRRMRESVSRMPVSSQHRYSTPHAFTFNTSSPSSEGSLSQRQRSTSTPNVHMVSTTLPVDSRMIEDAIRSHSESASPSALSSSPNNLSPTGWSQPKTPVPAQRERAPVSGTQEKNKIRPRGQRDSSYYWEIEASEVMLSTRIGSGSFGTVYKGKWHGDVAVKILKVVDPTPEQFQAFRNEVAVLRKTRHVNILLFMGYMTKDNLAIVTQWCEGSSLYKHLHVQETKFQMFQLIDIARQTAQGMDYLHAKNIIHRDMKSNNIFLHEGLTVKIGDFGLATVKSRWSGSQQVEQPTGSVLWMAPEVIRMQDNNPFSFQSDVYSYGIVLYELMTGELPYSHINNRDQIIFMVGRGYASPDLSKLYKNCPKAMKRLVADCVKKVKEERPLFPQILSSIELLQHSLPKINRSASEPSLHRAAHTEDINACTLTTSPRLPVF
# RUN DESCRIPTION: CRAF kinase activity assay (ADP-Glo)
# Type: biochemical
# MEASUREMENT CONTEXT: read-out: Kinase IC50 (nM) CRAF

Examples with answers:
Nc1nc(-c2ccc3ncnc(Nc4c(F)ccc(NS(=O)(=O)c5ccccc5Cl)c4F)c3n2)cs1	> 50 nM
O=S(=O)(Nc1ccc(F)c(Nc2ncnc3ccc(-n4cc(-c5ncc[nH]5)c5ccccc54)nc23)c1F)c1cccc(Cl)c1Cl	10 to 50 nM
COc1cncc(-c2ccc3ncnc(Nc4c(F)ccc(NS(=O)(=O)c5ccc(OC)cc5C)c4F)c3n2)c1	> 50 nM

In the following, a different compound is considered.
Find the recorded IC50 belonging to Nc1cccc2c1ncn2-c1ccc2ncnc(Nc3c(F)ccc(NS(=O)(=O)c4cccc(Cl)c4Cl)c3F)c2n1 and report it.
< 10 nM
